Test system: A549/ATCC NSCLC
Assay: NCI-60 one-dose screen, 48 h
Conditions: 10 µM unless noted
Protocol: Growth inhibition of the A549/ATCC human Non-Small Cell Lung tumor cell line is measured as a screen for anti-cancer activity. Cells are grown in 96 well plates and exposed to the test compound for 48 hours. Compounds are tested at a single concentration, which is 10^-5 M for most compounds. The reported endpoint is percent growth (GI% or GIPRCNT), where numbers from 0 - 100% represent growth inhibition, and numbers from -100% - 0 represent cell death. […]
About 83,000 compounds went through this panel and 20% of them were active in at least one assay; those are over-represented in the sample as a whole. The source made the active and inactive calls. The calls were made as follows: active = growth percent below 10; inactive = the rest.
Choose one outcome from this list and give only that: true (1) = active, false (0) = inactive

Outcome? `CCCCCCC(=O)C(C)C` false (0)

Next record, please: `N=C(N)c1ccc(-c2ccc(-c3ccc(Cl)cc3)s2)s1` true (1)

Next record, please: `OC(c1ccccc1)(c1ccccc1)C(F)(F)F` false (0)

Next record, please: `COc1ccc(-c2nc(SCC(C)C)nc(Nc3ccc(C)cc3)c2C#N)cc1` false (0)

Next record, please: `CCOc1ccccc1/C=N\N=C(N/N=C/c1ccccc1OCC)N/N=C/c1ccccc1OCC` true (1)

Next record, please: `C=CCNC(=S)NNc1ccc([N+](=O)[O-])cn1` false (0)

Next record, please: `COc1ccc(C(=O)CN2C(=O)NC(c3ccccc3)(c3ccccc3)C2=O)cc1` false (0)

Next record, please: `S=C(N/N=C/c1cc(Cl)cc(Cl)c1)NC12CC3CC(CC(C3)C1)C2` false (0)

Next record, please: O=C(O)CC1Cc2ccccc2C1C(=O)O (stereo unspecified) false (0)

Next record, please: CCCCCCCCc1ccc(OCCOCC[N+](C)(C)CC)cc1 (tested in a mixture with another compound) false (0)

Next record, please: CCCCCCCCCCC(C[N+](C)(C)C/C=C/c1ccccc1)C(O)c1ccccc1 (stereo unspecified) false (0)

Just for reference, PubChem BioAssay (NCI) is where these values come from.
